Cited source: patent US20210363262A1

- TEST TARGET: c-Met on cancer cell lines (Caki-1 renal cell carcinoma; MKN45 c-Met-amplified gastric cancer) (UniProt P08581 25-1390)
- Sequence (P08581 25-1390): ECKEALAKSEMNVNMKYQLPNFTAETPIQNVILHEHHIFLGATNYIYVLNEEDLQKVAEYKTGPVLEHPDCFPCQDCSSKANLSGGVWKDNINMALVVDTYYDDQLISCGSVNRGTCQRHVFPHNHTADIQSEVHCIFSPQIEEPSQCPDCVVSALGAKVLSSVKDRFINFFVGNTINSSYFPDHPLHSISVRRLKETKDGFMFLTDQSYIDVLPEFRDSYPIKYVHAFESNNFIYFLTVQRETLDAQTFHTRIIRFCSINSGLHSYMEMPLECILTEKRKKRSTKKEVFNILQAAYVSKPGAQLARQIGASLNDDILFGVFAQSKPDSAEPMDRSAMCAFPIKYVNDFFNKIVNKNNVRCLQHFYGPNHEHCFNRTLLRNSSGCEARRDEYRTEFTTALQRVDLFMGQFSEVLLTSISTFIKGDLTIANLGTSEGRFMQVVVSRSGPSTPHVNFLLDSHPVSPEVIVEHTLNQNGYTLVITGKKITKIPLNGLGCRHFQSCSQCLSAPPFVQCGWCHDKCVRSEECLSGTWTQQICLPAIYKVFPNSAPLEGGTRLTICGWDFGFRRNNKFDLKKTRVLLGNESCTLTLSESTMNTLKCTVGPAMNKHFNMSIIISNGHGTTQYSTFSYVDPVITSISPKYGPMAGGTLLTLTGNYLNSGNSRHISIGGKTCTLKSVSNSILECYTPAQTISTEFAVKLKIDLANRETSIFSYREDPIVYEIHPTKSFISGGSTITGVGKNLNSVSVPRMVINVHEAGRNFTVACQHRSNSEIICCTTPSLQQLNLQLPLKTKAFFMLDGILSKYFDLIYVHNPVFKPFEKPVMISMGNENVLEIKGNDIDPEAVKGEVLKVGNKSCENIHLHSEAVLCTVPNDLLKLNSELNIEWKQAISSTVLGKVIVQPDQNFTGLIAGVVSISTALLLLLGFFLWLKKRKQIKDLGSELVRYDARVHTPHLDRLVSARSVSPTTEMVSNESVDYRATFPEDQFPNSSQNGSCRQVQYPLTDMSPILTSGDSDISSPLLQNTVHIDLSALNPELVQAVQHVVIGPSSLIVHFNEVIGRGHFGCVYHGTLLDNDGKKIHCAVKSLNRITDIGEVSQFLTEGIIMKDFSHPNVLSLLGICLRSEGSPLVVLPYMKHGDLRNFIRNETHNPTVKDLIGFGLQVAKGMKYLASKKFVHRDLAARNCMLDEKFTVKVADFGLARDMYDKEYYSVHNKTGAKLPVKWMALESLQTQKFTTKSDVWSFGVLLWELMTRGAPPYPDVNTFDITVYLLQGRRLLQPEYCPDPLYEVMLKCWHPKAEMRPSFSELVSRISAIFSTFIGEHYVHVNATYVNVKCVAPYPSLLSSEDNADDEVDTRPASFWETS
- TEST SUMMARY: cell-based or functional assay
MEASUREMENT NAME: agonist activity: Akt phosphorylation in Caki-1 cells, Mean (%) (PBS = 0%, HGF/SF = 100%)
Report the figure along with its unit, number first.

Input line: Please list agonist activity: Akt phosphorylation in Caki-1 cells, Mean (%) (PBS = 0%, HGF/SF = 100%) recorded for the binder 1F12_H2L3, full-length human IgG1 (antibody, V domains shown) VH: EVQLLESGGGLVQPGGSLRLSCAASGFTFSNYAMSWVRQAPGKGLEWVSGISYDGGSTYYADSVKGRFTISRDNSKNTLYLQMNSLRAEDTAVYYCAKASRSCQRPACSYANGMDVWGQGTLVTVSS VL: QSVLTQPPSASGTPGQRVTISCTGSSSNIGNNYVTWYQQLPGTAPKLLIYENNHRPSGVPDRFSGSKSGTSASLAISGLQSEDEADYYCGSWDYSLSAYVFGGGTKLTVL
Output line: 24.5%

Input line: Please list agonist activity: Akt phosphorylation in Caki-1 cells, Mean (%) (PBS = 0%, HGF/SF = 100%) recorded for the binder 1F12_H100eH, full-length human IgG1 (antibody, V domains shown) VH: EVQLLESGGGLVQPGGSLRLSCAASGFTFSNYAMSWVRQAPGKGLEWVSGISYSGGSTYYADSVKGRFTISRDNSKNTLYLQMNSLRAEDTAVYYCAKASRSCQRPACHYANGMDVWGQGTLVTVSS VL: QSVLTQPPSASGTPGQRVTISCTGSSSNIGNNYVTWYQQLPGTAPKLLIYYNNHRPSGVPDRFSGSKSGTSASLAISGLQSEDEADYYCGSWDYSLSAYVFGGGTKLTVL
Output line: 27.5%

Input line: Please list agonist activity: Akt phosphorylation in Caki-1 cells, Mean (%) (PBS = 0%, HGF/SF = 100%) recorded for the binder 1F12_L27bD, full-length human IgG1 (antibody, V domains shown) VH: EVQLLESGGGLVQPGGSLRLSCAASGFTFSNYAMSWVRQAPGKGLEWVSGISYSGGSTYYADSVKGRFTISRDNSKNTLYLQMNSLRAEDTAVYYCAKASRSCQRPACSYANGMDVWGQGTLVTVSS VL: QSVLTQPPSASGTPGQRVTISCTGSSSDIGNNYVTWYQQLPGTAPKLLIYYNNHRPSGVPDRFSGSKSGTSASLAISGLQSEDEADYYCGSWDYSLSAYVFGGGTKLTVL
Output line: 30.3%

Input line: Please list agonist activity: Akt phosphorylation in Caki-1 cells, Mean (%) (PBS = 0%, HGF/SF = 100%) recorded for the binder 1F12_H2L6, full-length human IgG1 (antibody, V domains shown) VH: EVQLLESGGGLVQPGGSLRLSCAASGFTFSNYAMSWVRQAPGKGLEWVSGISYDGGSTYYADSVKGRFTISRDNSKNTLYLQMNSLRAEDTAVYYCAKASRSCQRPACSYANGMDVWGQGTLVTVSS VL: QSVLTQPPSASGTPGQRVTISCTGSSSNIGNNYVTWYQQLPGTAPKLLIYYNNHRPSGVPDRFSGSKSGTSASLAISGLQSEDEADYYCGSWDYSLSADVFGGGTKLTVL
Output line: 26%

Input line: Please list agonist activity: Akt phosphorylation in Caki-1 cells, Mean (%) (PBS = 0%, HGF/SF = 100%) recorded for the binder 1F12_L95aR, full-length human IgG1 (antibody, V domains shown) VH: EVQLLESGGGLVQPGGSLRLSCAASGFTFSNYAMSWVRQAPGKGLEWVSGISYSGGSTYYADSVKGRFTISRDNSKNTLYLQMNSLRAEDTAVYYCAKASRSCQRPACSYANGMDVWGQGTLVTVSS VL: QSVLTQPPSASGTPGQRVTISCTGSSSNIGNNYVTWYQQLPGTAPKLLIYYNNHRPSGVPDRFSGSKSGTSASLAISGLQSEDEADYYCGSWDYSLRAYVFGGGTKLTVL
Output line: 29.5%
